TARGET OR TEST SYSTEM: OGA (Homo sapiens)
Construct: endogenous in cells; host or cells: HEK293 cells inducible for P301L mutant human Tau (2N4R)
Sequence (O60502 1-916): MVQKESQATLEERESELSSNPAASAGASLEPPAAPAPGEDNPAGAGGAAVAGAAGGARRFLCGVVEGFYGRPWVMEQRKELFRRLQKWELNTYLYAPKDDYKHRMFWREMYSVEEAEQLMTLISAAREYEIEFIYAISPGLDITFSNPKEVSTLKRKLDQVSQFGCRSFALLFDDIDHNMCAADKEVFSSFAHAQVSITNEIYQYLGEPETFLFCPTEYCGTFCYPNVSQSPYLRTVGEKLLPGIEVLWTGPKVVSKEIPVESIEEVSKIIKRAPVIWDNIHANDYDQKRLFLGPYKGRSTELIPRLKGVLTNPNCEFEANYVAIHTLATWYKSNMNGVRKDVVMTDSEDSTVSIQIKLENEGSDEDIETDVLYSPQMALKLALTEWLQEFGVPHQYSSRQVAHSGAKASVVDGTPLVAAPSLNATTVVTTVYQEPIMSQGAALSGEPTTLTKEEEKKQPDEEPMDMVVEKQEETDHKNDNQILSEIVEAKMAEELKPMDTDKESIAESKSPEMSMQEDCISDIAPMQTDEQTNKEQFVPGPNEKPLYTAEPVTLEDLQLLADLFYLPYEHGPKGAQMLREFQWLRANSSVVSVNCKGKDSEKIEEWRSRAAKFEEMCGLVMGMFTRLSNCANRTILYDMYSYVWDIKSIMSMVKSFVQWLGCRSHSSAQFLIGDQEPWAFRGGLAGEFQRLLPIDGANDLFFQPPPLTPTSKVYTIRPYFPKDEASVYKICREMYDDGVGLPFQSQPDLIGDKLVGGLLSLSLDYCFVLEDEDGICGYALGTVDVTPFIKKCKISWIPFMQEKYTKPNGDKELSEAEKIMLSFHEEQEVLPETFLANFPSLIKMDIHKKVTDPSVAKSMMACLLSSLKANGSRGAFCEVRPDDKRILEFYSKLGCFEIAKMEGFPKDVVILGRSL
TEST DESCRIPTION: OGA cellular assay (ICC detection of O-GlcNAcylated proteins in HEK293 cells inducible for P301L mutant human Tau)
Type: cell-based
STATED CONDITIONS: HEK293 cells inducible for P301L mutant human Tau, 6 hours incubation; read-out: Cellular hOGA; pEC50 (converted)
Threshold-based label: EC50 under 0.1 µM gives 1 (yes), EC50 not under 0.1 µM gives 0 (no).

Below, 5 compounds whose answers are already recorded.
INSERT INTO assay_data (compound, target_or_test_system, assigned_label) VALUES
  ('COc1cc(C2CCCN(C(C)c3ccc4c(n3)OCCO4)C2)cc(C(F)(F)F)n1 (stereo not shown) [Product 10]', 'OGA (Homo sapiens)', '0 (no)'),
  ('COc1cc(OC2CCCN(C(C)c3ccc4c(n3)OCCO4)C2)cc(C)n1 (stereo not shown) [Product 18]', 'OGA (Homo sapiens)', '0 (no)'),
  ('Cc1cc(CO[C@H]2CCCN(C(C)c3nc4c(cc3F)OCCO4)C2)cc(C)n1 (stereo partly shown) [Product 168]', 'OGA (Homo sapiens)', '1 (yes)'),
  ('Cc1cc(NCC2CCCN(C(C)c3ccc4c(c3)OCC4)C2)cc(C)n1 (stereo not shown) [Product 22]', 'OGA (Homo sapiens)', '1 (yes)'),
  ('Cc1cc(NCC2CCCN(C(C)c3ccc4c(c3)OCC4)C2)cc(C(F)(F)F)n1 (stereo not shown) [Product 36]', 'OGA (Homo sapiens)', '0 (no)');

Turning now to a further compound:
Task: Report whether reported EC50 is lower than 0.1 µM (strictly) for Cc1cc(OC[C@H]2CCCN(C(C)c3nc4c(cc3F)CCO4)C2)cc(C)n1 (single isomer, unassigned) [Product 180]
Output: 1 (yes)
